tested on: Neofusicoccum luteum; experiment: Fungicidal activity against Neofusicoccum luteum infected Pinot noir grapevine assessed as mean pathogen compound applied 24 hr prior inoculation to pruning wound measured after 1 year; assay type: functional; design: concentration or dose not given beside the values
Collected Activity values appear next to each entry.
Your answer is read as %, so omit the unit and give the number.

CC(C)(C)C(O)(CCc1ccc(Cl)cc1)Cn1cncn1 (stereo not given) [TEBUCONAZOLE]    16
CCCN(CCOc1c(Cl)cc(Cl)cc1Cl)C(=O)n1ccnc1 [PROCHLORAZ]    43

What measured Activity goes with CC(C)NC(=O)N1CC(=O)N(c2cc(Cl)cc(Cl)c2)C1=O [IPRODIONE] ?
34

Please answer likewise for OC(c1ccc(Cl)cc1)(c1cncnc1)c1ccccc1Cl (stereo not given) [FENARIMOL]
27

Please answer likewise for COC(=O)NC(=S)Nc1ccccc1NC(=S)NC(=O)OC [THIOPHANATE METHYL]
20

====

Collected Activity values appear next to each entry.
tested on: Neofusicoccum luteum; test: Fungicidal activity against Neofusicoccum luteum infected Pinot noir grapevine assessed as pathogen incidence at closest side shoot compound applied 24 hr prior inoculation to pruning wound measured after 6 months; type: functional; design: concentration or dose not given beside the values
Your answer is read as %, so omit the unit and give the number.

Some molecules with known Activity results, for comparison:
C[Si](Cn1cncn1)(c1ccc(F)cc1)c1ccc(F)cc1    0
CC12CC1(C)C(=O)N(c1cc(Cl)cc(Cl)c1)C2=O (stereo not drawn)    7

What measured Activity goes with OC(c1ccc(Cl)cc1)(c1cncnc1)c1ccccc1Cl (stereo not drawn) ?
0

Please answer likewise for COC(=O)NC(=S)Nc1ccccc1NC(=S)NC(=O)OC [THIOPHANATE METHYL]
3

Please answer likewise for CC(C)NC(=O)N1CC(=O)N(c2cc(Cl)cc(Cl)c2)C1=O
3

Please answer likewise for COC(=O)Nc1nc2ccccc2[nH]1
3

Please answer likewise for CCCN(CCOc1c(Cl)cc(Cl)cc1Cl)C(=O)n1ccnc1
13

Please answer likewise for CC(C)(C)C(O)(CCc1ccc(Cl)cc1)Cn1cncn1 (stereo not drawn)
3

====

tested on: Neofusicoccum luteum; assay: Fungicidal activity against Neofusicoccum luteum infected Pinot noir grapevine assessed as mean pathogen compound applied 24 hr prior inoculation to pruning wound measured after 1 year; format: functional; design: concentration or dose not given beside the values
property-label: Activity (%)
Your answer is read as %, so omit the unit and give the number.

Some compounds with known Activity results, for comparison:
COC(=O)Nc1nc2ccccc2[nH]1 [CARBENDAZIM]    9
CC12CC1(C)C(=O)N(c1cc(Cl)cc(Cl)c1)C2=O (stereo not drawn) [PROCYMIDONE]    27

Now for the compound whose Activity we want.
What measured Activity goes with C[Si](Cn1cncn1)(c1ccc(F)cc1)c1ccc(F)cc1 [FLUSILAZOLE] ?
0

====

Collected Activity values appear next to each entry.
tested on: Neofusicoccum luteum; assay: Fungicidal activity against Neofusicoccum luteum infected Pinot noir grapevine assessed as pathogen incidence at dieback sites compound applied 24 hr prior inoculation to pruning wound measured after 1 year; assay type: functional; parameters: concentration or dose not given beside the values
Your answer is read as %, so omit the unit and give the number.

What measured Activity goes with C[Si](Cn1cncn1)(c1ccc(F)cc1)c1ccc(F)cc1 ?
0

Please answer likewise for CC(C)NC(=O)N1CC(=O)N(c2cc(Cl)cc(Cl)c2)C1=O
83

Please answer likewise for CCCN(CCOc1c(Cl)cc(Cl)cc1Cl)C(=O)n1ccnc1
97
